# TEST_DESCRIPTION: Clearance in CD-1 mouse at 2 to 3 mg/kg, iv administered as single bolus dose
# Type: ADME, organism-based
# TEST_PARAMETERS: in vivo
MEASURED_PROPERTY: clearance (mL/min/kg)

molecule="CCSc1cc([C@](O)(CCN(C)C)[C@@H](c2cc3cc(Br)ccc3nc2OC)c2cccc3c2OCO3)cc(SCC)n1 (racemic)" quantitative_readout=3.4
molecule="COc1cc([C@](O)(CCN(C)C)[C@@H](c2cc3cc(Br)ccc3nc2OC)c2cccc(OC)c2F)cc(OC(F)F)n1 (racemic)" quantitative_readout=9.7
molecule="CCCOc1cc([C@](O)(CCN(C)C)[C@@H](c2cc3cc(Br)ccc3nc2OC)c2ccnc(OC)c2OC)cc(OC)n1 (racemic)" quantitative_readout=6.9
molecule="CCSc1cc([C@](O)(CCN(C)C)[C@@H](c2cc3cc(Br)ccc3nc2OC)c2cccc(OC)c2F)cc(SCC)n1 (racemic)" quantitative_readout=3.6
molecule="COc1cc([C@](O)(CCN(C)C)[C@@H](c2cc3cc(Br)ccc3nc2OC)c2ccnc(OC)c2OC)cc(OC(C)C)n1 (racemic)" quantitative_readout=6.8
molecule="CCOc1cc([C@](O)(CCN(C)C)[C@@H](c2cc3cc(Br)ccc3nc2OC)c2ccnc(OC)c2OC)cc(OC)n1 (racemic)" quantitative_readout=9.5
molecule="CCOc1cc([C@](O)(CCN(C)C)[C@H](c2cccc(C)c2)c2cc3cc(Br)ccc3nc2OC)cc(OC)n1 (racemic)" quantitative_readout=12

Values from ChEMBL document CHEMBL4610003
